Tested on: Plasmodium falciparum Dd2^Dd2crt
Construct: Dd2
methodNotes: microbe, parasite or virus in culture
Parameters: species or system P. falciparum in human red blood cells; asexual blood stage growth inhibition, flow cytometry with SYBR Green I and MitoTracker Deep Red
runParameters: DD2, Erythrocyte, 72 h, read-out: DHA IC50
experimentalReadout: IC50

Query block: Any idea what IC50 was measured for C[C@H]1[C@@H](O)O[C@@H]2O[C@@]3(C)CC[C@H]4[C@H](C)CC[C@@H]1[C@@]24OO3 [DHA, dihydroartemisinin] ?
Result block: 2.6 nM

====

Test system: Plasmodium falciparum Dd2^Dd2crt
Construct: Dd2
methodNotes: microbe, parasite or virus in culture
Parameters: species or system P. falciparum in human red blood cells; asexual blood stage growth inhibition, flow cytometry with SYBR Green I and MitoTracker Deep Red
runParameters: DD2, Erythrocyte, 72 h, read-out: LMF IC50
Method: Susceptibility to all drugs tested in this study was measured by incubating asynchronous, ABS parasites plated at 0.2% to 0.3% parasitemia (or 0.8% for the poorly growing ZY19489-resistant lines harboring the pfcrt N246H allele) and 1% hematocrit at 37 °C in 96-well plates. […] Parasite growth in each well was assessed after 72 h using flow cytometry of cultures stained with SYBR Green I and MitoTracker Deep Red (Supplementary Fig. S12). […] Between 9,000 and 15,000 events were counted per sample. […]
experimentalReadout: IC50 (nM)
Just the number in nM, nothing appended.

Query block: Any idea what IC50 was measured for CCCCN(CCCC)CC(O)c1cc(Cl)cc2c1-c1ccc(Cl)cc1/C2=C/c1ccc(Cl)cc1 (stereo not shown) ?
Result block: 6
